Assay: physchem
Collected pKa values appear next to each entry.
Respond using a number only.

Field: example entries. Status: answers known.
N#Cc1ccc(NC(=O)Nc2ccccc2Br)c2nn[nH]c12 = 6.2
C[C@H]1CN(Cc2cc(Cl)ccc2OCC(=O)O)CCN1C(=O)Cc1ccccc1 = 2.5
CS(=O)(=O)NC(=O)CCCc1c(-c2ccc(F)cc2)[nH]c2ccc(C#N)cc12 = 5.2

Please turn your attention to the following entry.
Problem: For `CCn1cc(C(=O)O)c(=O)c2cc(F)c(N3CCNCC3)nc21` , what is its reported pKa?
Solution: 6.2

* * *

Collected logD values appear next to each entry.
Experiment: physchem
Conditions: octan-1-ol/water, pH 7.4, LogD7.4
Respond using a number only.

Field: example entries. Status: answers known.
C1CCc2c(c3c(N4CCCC4)nc(N4CCCC4)nc3n2CCN2CCOCC2)C1 = 3.6
O=C(Cc1cc(Nc2ncnc3cc(OCCCN4CCC[C@@H]4CO)ccc23)n[nH]1)Nc1cccc(F)c1F = 2.06

Problem: For CN1CCCCC1CCN1c2ccccc2Sc2ccc([S+](C)[O-])cc21 (stereo not given) , what is its reported logD?
Solution: 1.6

Problem: For `COCCOc1cc(Nc2nccc(N(C)c3cc(CO)ccc3C)n2)cc(N2CCOCC2)c1` , what is its reported logD?
Solution: 3.3

Problem: For `O=c1[nH]c2c(O)ccc([C@@H](O)CNCCCSCCOCCc3ccccc3)c2s1` , what is its reported logD?
Solution: 2.3

Problem: For `CC(=O)N1CCOc2nc(OCc3ccccc3)ccc21` , what is its reported logD?
Solution: 2.4

Problem: For `O=C(NCCNC(=O)c1cn(-c2ccccc2)nc1C(F)(F)F)c1ccc(Cl)cn1` , what is its reported logD?
Solution: 3.8

* * *

Assay: physchem
Conditions: octan-1-ol/water, pH 7.4, LogD7.4
Threshold 3: logD strictly smaller gives condition met, otherwise condition not met.

Consider the worked cases shown below.
COc1ccc(C(=O)Nc2cc(NC(=O)c3cccc(N(C)C)c3)ccc2Br)cc1OC = condition not met
O=C(COc1ccc(SCCCCCc2ccccc2)cc1)COc1ccc(C(=O)O)cc1 = condition not met
Cc1ncc(-c2nc(Nc3ccc(C(N)=O)c(F)c3)ncc2F)n1C(C)C = condition not met
COc1ccc(OC)c(CNc2[nH]nc3cccc(Oc4ccc(S(C)(=O)=O)cc4)c23)c1 = condition not met
CC(=O)Nc1cc2c(ccn2-c2cc(NC3CC3)n3ncc(C#N)c3n2)cc1C = condition met

Problem: hey, is logD for `C#CC[C@@H](C(=O)N[C@H](/C=C/C(=O)OCC)C[C@@H]1CCNC1=O)n1cccc(NC(=O)c2cc(C)on2)c1=O` lower than 3 or not?
Solution: condition met

Problem: hey, is logD for `Nc1ccc(Cl)c(-c2nc3ncccc3o2)c1` lower than 3 or not?
Solution: condition met

Problem: hey, is logD for `C(#Cc1n[nH]c2ccccc12)c1ccccc1` lower than 3 or not?
Solution: condition not met

Problem: hey, is logD for `O=S(=O)(Cc1c(F)cccc1F)N1CCN(c2ncccc2C(F)(F)F)CC1` lower than 3 or not?
Solution: condition not met

Problem: hey, is logD for `Cc1ncc(-c2ccnc(Nc3ccc(S(N)(=O)=O)cc3)n2)n1C` lower than 3 or not?
Solution: condition met

Problem: hey, is logD for `CCCNC(=O)c1nnc2c(-c3ccccc3)cccc2c1N` lower than 3 or not?
Solution: condition not met

Problem: hey, is logD for `COCC(=O)N1CCC(n2cc(-c3cnc(N)c(-c4nc5ccccc5o4)c3)cn2)CC1` lower than 3 or not?
Solution: condition not met

Problem: hey, is logD for `O=c1c2ccc(Cl)cc2[nH]c2c(O)nn(Cc3ccsc3)c(=O)c12` lower than 3 or not?
Solution: condition met

Problem: hey, is logD for `CN1CCC(COc2cc(OC3CCOCC3)c3c(Nc4c(Cl)ccc5c4OCO5)ncnc3c2)CC1` lower than 3 or not?
Solution: condition met

Reference for the values: ChEMBL document CHEMBL3301361
